These data points were gathered from patent US8252796B2.

# systemTested: NE reuptake, Rat hypothalamus synaptosome (Rattus norvegicus)
# Construct: hypothalamus
# Sequence (Q9WTR4 1-597): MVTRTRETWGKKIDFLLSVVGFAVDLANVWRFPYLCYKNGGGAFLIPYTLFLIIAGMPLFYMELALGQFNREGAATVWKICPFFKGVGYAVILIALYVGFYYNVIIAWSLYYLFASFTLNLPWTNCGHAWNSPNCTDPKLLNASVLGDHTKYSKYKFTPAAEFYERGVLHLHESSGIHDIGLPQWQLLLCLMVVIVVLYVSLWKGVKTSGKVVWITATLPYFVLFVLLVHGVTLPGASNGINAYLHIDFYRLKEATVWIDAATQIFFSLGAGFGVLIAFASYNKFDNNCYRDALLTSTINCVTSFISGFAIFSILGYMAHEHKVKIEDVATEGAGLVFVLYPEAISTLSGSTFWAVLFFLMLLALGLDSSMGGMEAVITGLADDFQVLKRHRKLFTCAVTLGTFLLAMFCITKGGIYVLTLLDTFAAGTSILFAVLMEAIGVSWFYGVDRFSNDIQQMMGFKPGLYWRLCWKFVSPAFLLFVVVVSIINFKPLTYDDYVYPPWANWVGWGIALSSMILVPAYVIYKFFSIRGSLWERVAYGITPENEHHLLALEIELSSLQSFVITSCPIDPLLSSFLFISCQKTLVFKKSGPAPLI
# methodSummary: NE reuptake, optical isomers (Example 37)
# conditionSummary: 20 min/37° C.
Entries annotated with measured IC50
Dear colleague, please return just the value in nM, with no unit written.

Some molecules with recorded IC50:
CCCCC(C(O)c1ccc2c(Cl)c(OC)ccc2c1)N1CCN(Cc2ccccc2)CC1 (stereo not shown) [IX-25] = 140
CCCCC(C(O)c1ccc2c(Cl)c(OC)ccc2c1)N1CCN(Cc2ccccc2)CC1 (stereo not shown) [IX-26] = 1200
CCCCC(C(O)c1ccc2c(Cl)c(OC)ccc2c1)N1CCN(Cc2ccccc2)CC1 (single isomer, unassigned) [IX-24] = 1400

IN: Recall the recorded IC50 for CCCCC(C(O)c1ccc2c(Cl)c(OC)ccc2c1)N1CCN(Cc2ccccc2)CC1 (single isomer, unassigned) [IX-23] with NE reuptake, Rat hypothalamus synaptosome (Rattus norvegicus) and state it.
OUT: 2100

----------
Entries annotated with measured pIC50
# systemTested: 5-HT reuptake, Rat brain synaptosome (Rattus norvegicus, UniProt P31652)
# Construct: Rat brain
# methodSummary: 5-HT reuptake, optical isomers (Example 37)
# conditionSummary: 15 min/37° C.
pIC50 here: minus log base 10 of the concentration, concentration in moles per litre.

Some compounds with recorded pIC50:
CCCCC(C(O)c1ccc2c(Cl)c(OC)ccc2c1)N1CCN(Cc2ccccc2)CC1 (stereo not shown) [IX-25] = 6.08
CCCCC(C(O)c1ccc2c(Cl)c(OC)ccc2c1)N1CCN(Cc2ccccc2)CC1 (single isomer, unassigned) [IX-23] = 5.72

IN: GET /values?readout=pIC50&item= CCCCC(C(O)c1ccc2c(Cl)c(OC)ccc2c1)N1CCN(Cc2ccccc2)CC1 (stereo not shown) [IX-26]
OUT: 5.92

IN: GET /values?readout=pIC50&item= CCCCC(C(O)c1ccc2c(Cl)c(OC)ccc2c1)N1CCN(Cc2ccccc2)CC1 (single isomer, unassigned) [IX-24]
OUT: 5.51

----------
# methodSummary: Pharmacokinetics and bioavailability, single i.v. and oral administration in SD rat
# Assay type: in vivo
# conditionSummary: male, plasma, iv, i.v. 10 mg/kg, (5 min), read-out: Cmax
property: Cmax (ng/mL)
Dear colleague, please return just the value in ng/mL, with no unit written.

IN: GET /values?readout=Cmax&item= COc1ccc2cc([C@@H](O)[C@H](C)N3CCN(Cc4ccccc4)CC3)ccc2c1Cl [SIPI5286, reference compound]
OUT: 13900

----------
# systemTested: reuptake of 5-HT by brain synaptosomes (prefrontal cortex) (Rattus norvegicus, UniProt P31652)
# Construct: from tissue; host or cells: rat prefrontal cortex synaptosomes
# Sequence (P31652 whole entry): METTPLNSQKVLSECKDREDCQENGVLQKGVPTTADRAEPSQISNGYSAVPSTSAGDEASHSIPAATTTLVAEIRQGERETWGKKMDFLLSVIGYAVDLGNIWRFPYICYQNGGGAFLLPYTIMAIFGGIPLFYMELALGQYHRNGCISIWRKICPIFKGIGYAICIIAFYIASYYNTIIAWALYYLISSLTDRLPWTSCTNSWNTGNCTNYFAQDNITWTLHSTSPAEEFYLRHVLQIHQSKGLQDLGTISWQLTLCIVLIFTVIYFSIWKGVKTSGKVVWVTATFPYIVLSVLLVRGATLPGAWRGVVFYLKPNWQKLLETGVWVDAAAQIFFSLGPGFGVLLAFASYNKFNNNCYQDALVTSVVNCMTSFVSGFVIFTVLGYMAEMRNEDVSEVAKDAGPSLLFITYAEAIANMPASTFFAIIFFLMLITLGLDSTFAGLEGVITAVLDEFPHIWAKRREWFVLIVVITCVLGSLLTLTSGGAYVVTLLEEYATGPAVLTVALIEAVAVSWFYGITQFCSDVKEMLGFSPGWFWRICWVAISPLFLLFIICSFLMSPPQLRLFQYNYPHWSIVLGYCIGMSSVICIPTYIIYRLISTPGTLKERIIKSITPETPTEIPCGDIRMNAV
# methodSummary: Inhibition of [3H]5-HT reuptake by rat brain synaptosomes, single concentration (Example 35)
# Format: biochemical
# conditionSummary: test substance 10 μmol/L; inhibitory rate of 0.1 mM venlafaxine taken as 100%
Label yes (1) when Inhibition on the reuptake of 5-HT(%) >= 80%; otherwise no (0).

Look over these answered cases.
CCCC[C@H]([C@@H](O)c1ccc2c(Cl)c(OC)ccc2c1)N1CCN(Cc2ccccc2)CC1 (racemic) = yes (1)
CCCC[C@H]([C@H](O)c1ccc2c(Cl)c(OC)ccc2c1)N1CCN(C(c2ccccc2)c2ccccc2)CC1 (racemic) = no (0)
CCCC[C@H]([C@H](O)c1ccc2c(Cl)c(OC)ccc2c1)N1CCN(Cc2ccccc2)CC1 (racemic) = yes (1)

IN: Given the entry CCCC[C@@H]([C@@H](O)c1ccc2c(Cl)c(OC)ccc2c1)N1CCN(c2ccccc2OC)CC1 (racemic) , answer whether its Inhibition on the reuptake of 5-HT(%) meets or surpasses 80%.
OUT: no (0)

IN: Given the entry CCCC[C@H]([C@@H](O)c1ccc2c(Cl)c(OC)ccc2c1)N1CCN(C(c2ccccc2)c2ccccc2)CC1 (racemic) , answer whether its Inhibition on the reuptake of 5-HT(%) meets or surpasses 80%.
OUT: no (0)

IN: Given the entry CCCC[C@@H]([C@H](O)c1ccc2c(Cl)c(OC)ccc2c1)N1CCN(c2ccccc2OC)CC1 (racemic) , answer whether its Inhibition on the reuptake of 5-HT(%) meets or surpasses 80%.
OUT: no (0)

----------
# methodSummary: Pharmacokinetics and bioavailability, single i.v. and oral administration in SD rat
# Format: in vivo
# conditionSummary: male, plasma, iv, i.v. 10 mg/kg, read-out: AUC (0-t)
property: AUC (0-t) (ng·h/mL)
Dear colleague, please return just the value in ng·h/mL, with no unit written.

IN: GET /values?readout=AUC (0-t)&item= COc1ccc2cc([C@@H](O)[C@H](C)N3CCN(Cc4ccccc4)CC3)ccc2c1Cl [SIPI5286, reference compound]
OUT: 12600
